# assay.explanation: gradient 5% acetonitrile 3 min, to 50% in 2 min, to 85% in 15 min, held 3 min, 100 µL/min
# condition.set: column: Zorbax Extend-C18 2.1 x 50 mm; eluents: water / acetonitrile, 0.1% formic acid
Label true when RP-LC retention time >= 800 s; otherwise false.

compound | discrete.label
CN(CC1CCOCC1)C(=O)c1ccc(Br)cc1 | false
CCc1nc(-c2ccc(C(=O)NC)cc2)no1 | false
CCCNC(=O)C1CCN(Cc2cc3ccccc3n2Cc2ccc(Cl)cc2)CC1 | false
Cc1cccc(C)c1NC(=O)N(C)CC1CCOCC1 | false
COc1cc(NC(=O)C2Nc3cc(F)ccc3S(=O)(=O)N2)cc(OC)c1OC (configuration not stated) | false
CCOc1ccc(C(c2c(O)cc(C)n(CCOC)c2=O)N2CCN(c3ccccn3)CC2)cc1 (configuration not stated) | false
CCOC(=O)C(C)NC(=O)N1CCCN(C2=NS(=O)(=O)C(c3ccccc3)=C2C)CC1 (configuration not stated) | false
CCNC(=O)C1CCN(c2cc(SCC(=O)Nc3ccc(C(=O)OCC)cc3)ncn2)CC1 | false
Cc1ccc(NC(=O)Cn2nc(N3CCC(C)CC3)c3ccccc3c2=O)c(C)c1 | true
O=C(COc1ccccc1)N1CCN(C(=O)c2nnn3c2COC(c2ccccc2)C3)CC1 (configuration not stated) | true
CN(C)c1ccc(Nc2nc(-c3ccccc3)cs2)cc1 | false
Cc1sc(NC(=O)c2ccc(COc3ccc(F)cc3)o2)nc1-c1ccccc1 | true
Cc1ccc(S(=O)(=O)N2CCC(n3c(-c4ccoc4)nc4cccnc43)C2)cc1F (configuration not stated) | true
